# credit: the supplement of paper PMC10127200

System: 786-O
Assay: Euclidean distance of Cell Painting phenotypic profile (signed KS, 77 features) to DMSO centroid (dimensionless distance); 5 or 10 uM (library dependent); higher = stronger phenotypic change vs DMSO (phenoactivity)
Conditions: 48 h
quantity_measured: Euclidean distance
One number for each entry.

>>> meas_value("CCCC(=O)OCOC(=O)C1=C(C)NC(C)=C(C(=O)OC)C1c1cccc(Cl)c1Cl (stereo not drawn) [Clevidipine Butyrate]")
1.64
>>> meas_value("CC(C)(O)c1ccccc1CC[C@@H](SCC1(CC(=O)O)CC1)c1cccc(/C=C/c2ccc3ccc(Cl)cc3n2)c1 [Montelukast Sodium]")
0.941
>>> meas_value("Cn1c(Cn2ccc(C(F)(F)F)c(Oc3cc(Cl)cc(C#N)c3)c2=O)n[nH]c1=O")
1.23

For the 3 compounds below, give their Euclidean distance values.
1. Oc1ccc(O)cc1 [Hydroquinone]
2. Cc1coc2c1C(=O)C(=O)c1c-2ccc2c1CCCC2(C)C
3. Cc1c(OCC(F)(F)F)ccnc1C[S+]([O-])c1nc2ccccc2[nH]1 (stereo not drawn)

1: 1.49; 2: 1.26; 3: 1.16
